Each record here notes measured phosphorylation enrichment.
target: FGFR1 (UniProt P11362); assay: phosphorylation enrichment, bacterial display (enrichment ratio); higher = better substrate or ligand; peptides without Tyr show the background;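 also: 11-residue human phosphosite peptides and single-mutation variants displayed on the E. coli surface, counted by deep sequencing, each peptide's frequency after selection divided by its frequency in the unselected input library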;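 also: frequency after pTyr selection over input frequency; kinase dosed for 20-30% of maximal phosphorylation in three min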
Sequence (P11362 whole entry, looked up): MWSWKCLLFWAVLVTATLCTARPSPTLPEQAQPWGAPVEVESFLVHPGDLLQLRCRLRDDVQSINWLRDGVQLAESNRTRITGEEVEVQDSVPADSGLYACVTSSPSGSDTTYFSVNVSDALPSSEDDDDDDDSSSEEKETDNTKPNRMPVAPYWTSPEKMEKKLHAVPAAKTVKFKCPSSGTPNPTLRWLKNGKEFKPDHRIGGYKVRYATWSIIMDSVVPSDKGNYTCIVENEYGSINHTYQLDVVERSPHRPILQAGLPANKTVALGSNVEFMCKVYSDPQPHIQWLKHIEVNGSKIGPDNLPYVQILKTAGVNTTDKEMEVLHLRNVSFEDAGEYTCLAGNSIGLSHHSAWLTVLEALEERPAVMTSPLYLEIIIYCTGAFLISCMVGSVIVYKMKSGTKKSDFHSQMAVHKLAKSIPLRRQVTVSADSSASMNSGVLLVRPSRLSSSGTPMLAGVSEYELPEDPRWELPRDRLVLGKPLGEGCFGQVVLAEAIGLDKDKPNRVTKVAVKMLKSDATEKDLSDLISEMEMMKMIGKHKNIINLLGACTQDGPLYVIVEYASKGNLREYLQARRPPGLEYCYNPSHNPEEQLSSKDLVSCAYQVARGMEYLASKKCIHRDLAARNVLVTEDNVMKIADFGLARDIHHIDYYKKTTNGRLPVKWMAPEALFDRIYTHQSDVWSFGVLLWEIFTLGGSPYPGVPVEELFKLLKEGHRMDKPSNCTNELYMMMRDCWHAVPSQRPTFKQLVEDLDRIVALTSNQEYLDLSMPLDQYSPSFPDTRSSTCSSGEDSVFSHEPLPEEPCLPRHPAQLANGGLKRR
// return just the number, without any unit appended

STFVPYEIKVQ [L1CAM_Y784] = 0.506

Query block: For the sequence shown here, FGHTFYNQAIM [MCCC2_Y196_R193H] , give the reported phosphorylation enrichment.
Result block: 0.555

Query block: For the sequence shown here, SVTCTDSPALN [TP53_Y126_Y126D] , give the reported phosphorylation enrichment.
Result block: 0.491

Query block: For the sequence shown here, CEDMEYLESKQ [BTK_Y511_A508D] , give the reported phosphorylation enrichment.
Result block: 0.476

Query block: For the sequence shown here, QQLDEYQELLD [LMNA_Y359] , give the reported phosphorylation enrichment.
Result block: 0.615

Query block: For the sequence shown here, SPFEVYVDKSQ [FLNA_Y373] , give the reported phosphorylation enrichment.
Result block: 0.493

Query block: For the sequence shown here, SSSPTYPDLPF [GLI3_Y168] , give the reported phosphorylation enrichment.
Result block: 0.784

Query block: For the sequence shown here, FRARAYGFRGP [CHGA_Y381] , give the reported phosphorylation enrichment.
Result block: 0.497

Query block: For the sequence shown here, CLMILHRLKER [PTPRR_Y249_Y249H] , give the reported phosphorylation enrichment.
Result block: 0.436

Query block: For the sequence shown here, AEYGLYRAMVR [VSX2_Y222_G223R] , give the reported phosphorylation enrichment.
Result block: 0.577

Query block: For the sequence shown here, EHAGEYGAEAL [HBA1_Y25_A20E] , give the reported phosphorylation enrichment.
Result block: 0.595

Query block: For the sequence shown here, KVKEQYQDVPM [PKP2_Y659] , give the reported phosphorylation enrichment.
Result block: 0.509

Query block: For the sequence shown here, FQLPFYNTVPS [BMPR1A_Y458_M460T_YF] , give the reported phosphorylation enrichment.
Result block: 0.414

Query block: For the sequence shown here, PECEWYKNGVK [TTN_Y2112] , give the reported phosphorylation enrichment.
Result block: 0.821

Query block: For the sequence shown here, PPGRSYSPCDY [TNS1_Y793_Y796C] , give the reported phosphorylation enrichment.
Result block: 0.73

Query block: For the sequence shown here, DESEDCRDTVV [CNNM3_Y456_Y456C] , give the reported phosphorylation enrichment.
Result block: 0.589

Query block: For the sequence shown here, MGCVNYGAFIN [GLB1_Y485_R482C_YF] , give the reported phosphorylation enrichment.
Result block: 0.531
